Reported IC50 on Epidermal growth factor receptor (Homo sapiens, UniProt P00533) for assorted molecules, compiled from publications.

These recorded examples may help you get a feel for the data.
CN(C)C/C=C/C(=O)N1CC[C@@H](Nc2n[nH]c3nccc(Oc4ccn(Cc5ccccc5)c(=O)c4)c23)C1 ... > 10000 nM
CN1CCN(Cc2ccc3[nH]/c(=N\C(=O)c4ccnc(Oc5cc(F)cc(O)c5C=O)c4)n(CC(C)(C)O)c3c2)CC1 ... 18.6 nM
CN(C(=O)/C=C/c1cn(C)cn1)c1cccc(-n2c(=O)n(-c3ccc(Oc4ccccc4)cc3)c3c(N)ncnc32)c1 ... 1000 to 10000 nM
COc1ccccc1C(=O)NCc1ccc(-c2nn([C@@H]3C=C[C@H](O)C3)c3ncnc(N)c23)cc1 ... 1000 to 10000 nM
Cc1ccnc(NC(=O)c2ccc(Oc3ccnc4[nH]nc(N[C@@H]5CCCN(C(=O)C6(C)CCNCC6)C5)c34)cc2)c1 ... 1000 to 10000 nM

--- query ---
Ask: Provide value of IC50 for this record tested with Epidermal growth factor receptor (Homo sapiens, UniProt P00533): Cn1cc([C@@H](Nc2cc(Cl)c3ncc(C#N)c(Nc4ccc(F)c(Cl)c4)c3c2)c2cccnc2)nn1
Reply: > 10000 nM

---

Reported IC50 on Epidermal growth factor receptor (Homo sapiens, UniProt P00533) for assorted molecules, compiled from publications.

These recorded examples may help you get a feel for the data.
Cc1ccnc(NC(=O)c2ccc(-c3nn([C@@H]4CCN(C(=O)/C=C/CNC5CC5)C4)c4ncnc(N)c34)cc2)c1 ... 100 to 1000 nM
COc1cc(CCNCc2ccc(-c3ccc4ncnc(Nc5ccc(OCc6cccc(F)c6)c(Cl)c5)c4c3)o2)cc(OC)c1 ... < 10000 nM

Ask: I have this molecule here, C=CC(=O)N[C@@H]1CN(c2nc(Nc3cn([C@H]4CCN(C)C4)nc3OC)c3ncc(C)n3n2)C[C@H]1F , and I need its recorded IC50.
Reply: ≤ 10 nM

Ask: I have this molecule here, C=CC(=O)Nc1cccc(Oc2nc(Nc3ccc(N4CCOCC4)cc3OC(F)F)ncc2C(F)(F)F)c1 , and I need its recorded IC50.
Reply: 30 to 100 nM

---

Reported IC50 on Epidermal growth factor receptor (Homo sapiens, UniProt P00533) for assorted compounds, compiled from publications.

These recorded examples may help you get a feel for the data.
CN(C/C=C/C(=O)N1CC[C@@H](Nc2n[nH]c3nccc(Oc4ccc(OCc5cnn[nH]5)cc4)c23)C1)C1CC1 ... < 100 nM
C[C@@H](Nc1ncnc2[nH]c(-c3ccc(OCCCCC(=O)NO)cc3)cc12)c1ccccc1 ... < 100 nM
C#Cc1cccc(Nc2ncnc3ccc(OCC(=O)NO)cc23)c1 ... < 100 nM
Cc1cc(NC(=O)/C=C/CN(C)C2CC2)cc(-n2c(=O)n(-c3ccc(Oc4ccccc4)cc3C)c3c(N)ncnc32)c1 ... 100 to 1000 nM
CC(=O)N1CCN(C/C=C/C(=O)Nc2cccc(Nc3cc(Nc4cccc(C)c4)ncn3)c2)CC1 ... 1000 to 10000 nM
C[C@@H](Nc1ncnc2[nH]c(-c3ccc(CN4CCN(CCCCCCC(=O)NO)CC4)cc3)cc12)c1ccccc1 ... < 100 nM
C=CC(=O)N1CCOc2c1ccc1ncnc(Nc3ccc(OCc4ccccn4)c(Cl)c3)c21 ... ≤ 50 nM
CN1CCN(C2CCN(c3ccc(Nc4nc(Nc5cccc6c5N(S(C)(=O)=O)CC6)c5cc[nH]c5n4)c4c3OCO4)CC2)CC1 ... 230 nM
C=CC(=O)N[C@@H]1CCn2c(c(-c3cnc4ccccc4c3)c3c(N)ncnc32)C1=C ... 24 nM
COc1cc(N2CCC(N3CCN(C)CC3)CC2)ccc1Nc1ncc(C#Cc2ccc(O)c(C=O)c2)c(Nc2ccccc2)n1 ... 98.4 nM

Ask: I have this compound here, CN1CCN(C2CCN(c3ccc(Nc4nc(N(C)C)c(-c5ccccc5)nc4C(N)=O)cc3)CC2)CC1 , and I need its recorded IC50.
Reply: > 300 nM

Ask: I have this compound here, CN1CCN(C2CCN(c3ccc(Nc4nc(Nc5cccc6c5N(S(C)(=O)=O)CC6)c5cc[nH]c5n4)cc3F)CC2)CC1 , and I need its recorded IC50.
Reply: 14 nM

Ask: I have this compound here, C[C@@H](Nc1ncnc2[nH]c(-c3ccc(CNCc4ccc(C(=O)NO)cc4)cc3)cc12)c1ccccc1 , and I need its recorded IC50.
Reply: < 100 nM

Ask: I have this compound here, C=CC(=O)N1CCC[C@@H](Nc2n[nH]c3nccc(Oc4ccc(Oc5ccccc5)c(C)c4)c23)C1 , and I need its recorded IC50.
Reply: < 100 nM

Ask: I have this compound here, C=CC(=O)Nc1cccc(N2C(=O)N(C)Cc3cnc(Nc4ccc(N5CCN(C)CC5)cc4OC(C)C)nc32)c1 , and I need its recorded IC50.
Reply: ≤ 10 nM

Ask: I have this compound here, CN(C)C/C=C/C(=O)N1CCOc2c1ccc1ncnc(Nc3ccc(OCc4cccc(C(F)(F)F)c4)cc3)c21 , and I need its recorded IC50.
Reply: ≤ 50 nM

Ask: I have this compound here, CNS(=O)(=O)N1CCc2cccc(Nc3nc(Nc4ccc(N5CCC(N6CCN(C)CC6)CC5)cc4OC)ncc3Cl)c21 , and I need its recorded IC50.
Reply: 1.4 nM
